# Target or test system: PDGFRβ (Rattus norvegicus (Rat), UniProt Q05030)
# Sequence (Q05030 32-1097): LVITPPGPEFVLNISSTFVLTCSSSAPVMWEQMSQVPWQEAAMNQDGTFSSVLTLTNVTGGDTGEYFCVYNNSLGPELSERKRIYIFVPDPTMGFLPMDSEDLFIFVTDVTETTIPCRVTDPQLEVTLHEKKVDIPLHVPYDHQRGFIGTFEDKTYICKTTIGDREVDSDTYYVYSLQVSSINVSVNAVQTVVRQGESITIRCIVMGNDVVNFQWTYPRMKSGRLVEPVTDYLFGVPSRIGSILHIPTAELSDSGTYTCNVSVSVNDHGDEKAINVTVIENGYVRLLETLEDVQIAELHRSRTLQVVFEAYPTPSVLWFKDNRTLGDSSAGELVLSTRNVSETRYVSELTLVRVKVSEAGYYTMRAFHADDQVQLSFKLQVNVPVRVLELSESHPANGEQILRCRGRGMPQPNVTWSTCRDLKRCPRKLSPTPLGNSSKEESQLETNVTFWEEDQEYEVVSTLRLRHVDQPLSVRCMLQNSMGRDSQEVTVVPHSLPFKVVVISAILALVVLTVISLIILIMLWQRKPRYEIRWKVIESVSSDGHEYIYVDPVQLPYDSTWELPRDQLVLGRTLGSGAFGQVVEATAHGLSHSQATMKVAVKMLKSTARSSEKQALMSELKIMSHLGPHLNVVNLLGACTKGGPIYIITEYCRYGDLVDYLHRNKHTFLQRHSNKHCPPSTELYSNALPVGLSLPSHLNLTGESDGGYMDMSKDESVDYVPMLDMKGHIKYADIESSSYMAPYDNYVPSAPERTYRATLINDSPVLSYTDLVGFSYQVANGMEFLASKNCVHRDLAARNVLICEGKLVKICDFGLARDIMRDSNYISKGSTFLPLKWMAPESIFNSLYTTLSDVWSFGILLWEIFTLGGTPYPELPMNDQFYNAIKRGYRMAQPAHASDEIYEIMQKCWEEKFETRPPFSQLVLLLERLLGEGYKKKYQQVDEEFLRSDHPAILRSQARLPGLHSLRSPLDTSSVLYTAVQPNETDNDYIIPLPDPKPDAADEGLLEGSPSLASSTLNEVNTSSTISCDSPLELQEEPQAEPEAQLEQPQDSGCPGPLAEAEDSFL
# Assay text: PDGFRβ Cellular Assay (PDGFRb P-Y751 HTRF in A10 cells stimulated with PDGF-BB)
# Assay type: cell-based
# Settings: read-out: PDGFR Cellular IC50
Measured endpoint: pIC50
# reply with the number alone; pIC50 is -log10 of concentration in mol/L

Answered examples (3):
>  <Compound>
Cc1ncc(NC(=O)CN2C3CCC2COC3)cc1NC(=O)c1cnn2cc(-c3cnn(C)c3)sc12

>  <pIC50>
7.63

$$$$
>  <Compound>
Cc1ncc(C(=O)NCCN2CCCC2(C)C)cc1NC(=O)c1cnn2cc(-c3cccc4c3cnn4C)sc12

>  <pIC50>
7.93

$$$$
>  <Compound>
Cc1ncc(NC(=O)CN2CC(C)(C)C2)cc1NC(=O)c1cnn2cc(-c3ccoc3)sc12

>  <pIC50>
8.82

$$$$

Now let's try a different one.
Prompt: // lookup pIC50 | system=PDGFRβ (Rattus norvegicus (Rat), UniProt Q05030) | key= Cc1ncc(C(=O)NCCN2CCC(F)(F)C2)cc1NC(=O)c1cnn2cc(-c3cnn(C)c3)sc12
Response: 8.03

###

This listing pairs molecules with measured IC50.
# Target or test system: VEGFR2, unphosphorylated (Homo sapiens (Human), UniProt P35968)
# Sequence (P35968 20-1356): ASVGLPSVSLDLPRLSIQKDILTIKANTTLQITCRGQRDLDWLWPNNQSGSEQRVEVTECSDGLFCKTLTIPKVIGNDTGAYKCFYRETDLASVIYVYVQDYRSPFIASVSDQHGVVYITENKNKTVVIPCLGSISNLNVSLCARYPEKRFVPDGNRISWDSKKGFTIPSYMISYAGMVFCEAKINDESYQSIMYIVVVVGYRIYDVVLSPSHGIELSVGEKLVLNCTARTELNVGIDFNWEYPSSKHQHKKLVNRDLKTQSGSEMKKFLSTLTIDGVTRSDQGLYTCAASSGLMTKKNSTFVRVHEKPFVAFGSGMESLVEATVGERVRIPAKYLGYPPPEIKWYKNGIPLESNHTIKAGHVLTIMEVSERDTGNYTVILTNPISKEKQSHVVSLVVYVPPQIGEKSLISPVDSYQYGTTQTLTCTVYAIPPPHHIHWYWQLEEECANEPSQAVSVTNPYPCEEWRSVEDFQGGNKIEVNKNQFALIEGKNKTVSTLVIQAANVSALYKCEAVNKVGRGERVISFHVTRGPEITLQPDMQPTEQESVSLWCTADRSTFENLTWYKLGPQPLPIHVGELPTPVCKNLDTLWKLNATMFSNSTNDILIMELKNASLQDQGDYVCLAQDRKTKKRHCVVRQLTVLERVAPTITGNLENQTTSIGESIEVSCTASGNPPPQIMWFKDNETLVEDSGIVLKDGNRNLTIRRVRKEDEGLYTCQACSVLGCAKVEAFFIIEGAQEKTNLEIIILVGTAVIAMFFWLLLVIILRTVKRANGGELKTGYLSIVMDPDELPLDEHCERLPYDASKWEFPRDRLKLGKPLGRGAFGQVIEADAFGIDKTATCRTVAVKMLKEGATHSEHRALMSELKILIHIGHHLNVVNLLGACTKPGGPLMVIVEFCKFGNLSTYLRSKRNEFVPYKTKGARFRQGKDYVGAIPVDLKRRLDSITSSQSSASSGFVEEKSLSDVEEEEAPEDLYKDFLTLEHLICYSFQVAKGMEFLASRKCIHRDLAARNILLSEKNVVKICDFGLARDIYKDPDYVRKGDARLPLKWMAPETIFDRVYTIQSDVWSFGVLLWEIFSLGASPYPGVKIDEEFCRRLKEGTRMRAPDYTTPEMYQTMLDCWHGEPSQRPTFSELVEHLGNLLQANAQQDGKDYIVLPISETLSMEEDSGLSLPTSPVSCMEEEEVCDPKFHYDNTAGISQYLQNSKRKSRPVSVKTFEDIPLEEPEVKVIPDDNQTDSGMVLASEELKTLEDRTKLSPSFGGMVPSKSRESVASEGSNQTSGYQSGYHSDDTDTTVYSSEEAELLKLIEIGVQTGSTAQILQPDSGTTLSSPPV
# Assay text: VEGFR ADP GLO Assay

Recorded results for 8 molecules are shown here.
>  <Molecule>
CNC(=O)Cn1cc(-c2cn3ncc(C(=O)Nc4cc(NC(=O)CN5CC(C)(C)C5)cnc4C)c3s2)cn1 [Example 279]

>  <IC50>
> 7.5 µM

$$$$
>  <Molecule>
Cc1ncc(C(=O)NCCN2CCCC2(C)C)cc1NC(=O)c1cnn2cc(-c3cccnc3)sc12 [Example 135]

>  <IC50>
> 7.5 µM

$$$$
>  <Molecule>
COc1ncc(-c2cn3ncc(C(=O)Nc4cc(NC(=O)CN5CC(C)(C)C5)cnc4C)c3s2)c(OC)n1 [Example 392]

>  <IC50>
7.44 µM

$$$$
>  <Molecule>
Cc1ncc(NC(=O)CC(C)N2CCCCC2)cc1NC(=O)c1cnn2cc(-c3cnn(C)c3)sc12 (stereo not drawn) [Example 307]

>  <IC50>
> 7.5 µM

$$$$
>  <Molecule>
COc1ncccc1-c1cn2ncc(C(=O)Nc3cc(C(=O)NCCN4CC(C)(C)C4)cnc3C)c2s1 [Example 387]

>  <IC50>
> 7.5 µM

$$$$
>  <Molecule>
Cc1ncc(NC(=O)CN2CCC3(CC3)C2)cc1NC(=O)c1cnn2cc(-c3cnn(CCO)c3)sc12 [Example 32]

>  <IC50>
> 7.5 µM

$$$$
>  <Molecule>
Cc1ncc(NC(=O)CN2CCC3(CC2)COC3)cc1NC(=O)c1cnn2cc(-c3cnn(C)c3)sc12 [Example 46]

>  <IC50>
> 7.5 µM

$$$$
>  <Molecule>
Cc1cc(C(=O)NCCN2CCCC2(C)C)sc1NC(=O)c1cnn2cc(-c3cnn(C)n3)sc12 [Example 186]

>  <IC50>
> 7.5 µM

$$$$

Prompt: Returns the measured IC50 for the input molecule. Input: Cc1ncc(NC(=O)CN2CCC3(CCC3)C2)cc1NC(=O)c1cnn2cc(-c3cnn(CCO)c3)sc12 [Example 30]
Response: > 7.5 µM

Prompt: Can you handle Cc1ncc(C(=O)NCCNC2CCC2)cc1NC(=O)c1cnn2cc(-c3cnn4c3CCC4)sc12 [Example 491] next?
Response: > 7.5 µM

Prompt: Repeat with Cc1ncc(NC(=O)CN2CC(C)(C)C2)cc1NC(=O)c1cnn2cc(-c3cnn(C)c3)sc12 [Example 22]
Response: > 7.5 µM

Prompt: One more molecule: COc1ncccc1-c1cn2ncc(C(=O)Nc3cc(NC(=O)C[C@@H]4CCCN4C(C)C)cnc3C)c2s1 [Example 323]
Response: > 7.5 µM

Prompt: Can you handle Cc1ncc(NC(=O)CNC2CCC2)cc1NC(=O)c1cnn2cc(-c3cnn4c3CCC4)sc12 [Example 471] next?
Response: > 7.5 µM

Prompt: Likewise for Cc1ncc(NC(=O)CN2CCCCC23CC3)cc1NC(=O)c1cnn2cc(-c3cnn(CCO)c3)sc12 [Example 86] ?
Response: > 7.5 µM

Prompt: // query: COCCn1cc(-c2cn3ncc(C(=O)Nc4cc(NC(=O)CN5C6CCC5CC6)cnc4C)c3s2)cn1 [Example 340]
Response: > 7.5 µM

Prompt: Further, for Cc1ncc(NC(=O)CN2C[C@H](C)O[C@@H](C)C2)cc1NC(=O)c1cnn2cc(-c3c[nH]nc3C)sc12 (relative stereo) [Example 371] ?
Response: > 2.5 µM

###

Listed here: compounds with reported IC50 for His6-TEV-PDGFRβ (557-1016) (Homo sapiens (Human), UniProt P09619).
State the answer as a number, implicitly in pM.

>  <Compound>
Cc1ncc(NC(=O)CN2CC(C)(C)C2)cc1NC(=O)c1cnn2cc(-c3cnn(C)c3C)sc12 [Example 434]

>  <Measured endpoint>
IC50

>  <Result number>
200

$$$$
>  <Compound>
Cc1ncc(C(=O)NCCN2CC(C)(C)C2)cc1NC(=O)c1cnn2cc(-c3cnn4c3OCCC4)sc12 [Example 479]

>  <Measured endpoint>
IC50

>  <Result number>
300

$$$$
>  <Compound>
Cc1ncc(NC(=O)OCC(C)(C)N2CCCC2)cc1NC(=O)c1cnn2cc(-c3cnn(C)c3)sc12 [Example 249]

>  <Measured endpoint>
IC50

>  <Result number>
500

$$$$
>  <Compound>
Cc1ncc(NC(=O)C2CN(C(C)C)C2)cc1NC(=O)c1cnn2cc(-c3cnn4c3OCCC4)sc12 [Example 348]

>  <Measured endpoint>
IC50

>  <Result number>
400

$$$$
>  <Compound>
Cc1ncc(NC(=O)CN2C[C@H](C)O[C@@H](C)C2)cc1NC(=O)c1cnn2cc(-c3ccc[nH]c3=O)sc12 (relative stereo) [Example 370]

>  <Measured endpoint>
IC50

>  <Result number>
1000

$$$$

Prompt: Give its IC50 value. Item: Cc1ncc(NC(=O)OCCN(C)C2CCCCC2)cc1NC(=O)c1cnn2cc(-c3cnn(C)c3)sc12 [Example 251]
Response: 1500

Prompt: Entry to check: Cc1cc(C(=O)NCCN2CCC(C)(C)C2)sc1NC(=O)c1cnn2cc(-c3cnn(C)c3)sc12 [Example 189]
Response: 7300

###

The compounds below have reported IC50 for His6-TEV-PDGFRβ (557-1016) (Homo sapiens (Human)).
Enter your answer as a number in pM; do not include the unit.

Solved entries (count: 3):
>  <Compound>
Cc1ncc(NC(=O)CN2CC(C)(C)C2)cc1NC(=O)c1cnn2cc(-c3cnn(-c4cccnc4)c3)sc12

>  <Measurement unit>
pM

>  <IC50>
300

$$$$
>  <Compound>
Cc1ncc(NC(=O)CN2Cc3ncsc3C2)cc1NC(=O)c1cnn2cc(-c3cnn(C)c3)sc12

>  <Measurement unit>
pM

>  <IC50>
900

$$$$
>  <Compound>
Cc1ncc(NC(=O)CN2CCC(F)(F)CC2)cc1NC(=O)c1cnn2cc(-c3cnn(C)c3)sc12

>  <Measurement unit>
pM

>  <IC50>
400

$$$$

Prompt: Param readout= IC50; system= His6-TEV-PDGFRβ (557-1016) (Homo sapiens (Human)); entry= Cc1ncc(C(=O)NCCN2CCC(C)(C)C2)cc1NC(=O)c1cnn2cc(-c3ccncc3)sc12 ; returns value.
Response: 400

Prompt: Again, but for Cc1ncc(NC(=O)CN2CC(C)(C)C2)cc1NC(=O)c1cnn2cc(-c3ccc(CO)o3)sc12
Response: 300

Prompt: Also, Cc1ncc(NC(=O)CN2CCc3cnccc3C2)cc1NC(=O)c1cnn2cc(-c3cnn(C)c3)sc12 please.
Response: 1400

Prompt: Can you check COCCn1cc(-c2cn3ncc(C(=O)Nc4cc(NC(=O)CCCN5CCC[C@@H]5C)cnc4C)c3s2)cn1 next?
Response: 1500

###

# Target or test system: Tb-labeled inactive PDGFRβ (Homo sapiens (Human))
# Sequence (P09619 33-1106): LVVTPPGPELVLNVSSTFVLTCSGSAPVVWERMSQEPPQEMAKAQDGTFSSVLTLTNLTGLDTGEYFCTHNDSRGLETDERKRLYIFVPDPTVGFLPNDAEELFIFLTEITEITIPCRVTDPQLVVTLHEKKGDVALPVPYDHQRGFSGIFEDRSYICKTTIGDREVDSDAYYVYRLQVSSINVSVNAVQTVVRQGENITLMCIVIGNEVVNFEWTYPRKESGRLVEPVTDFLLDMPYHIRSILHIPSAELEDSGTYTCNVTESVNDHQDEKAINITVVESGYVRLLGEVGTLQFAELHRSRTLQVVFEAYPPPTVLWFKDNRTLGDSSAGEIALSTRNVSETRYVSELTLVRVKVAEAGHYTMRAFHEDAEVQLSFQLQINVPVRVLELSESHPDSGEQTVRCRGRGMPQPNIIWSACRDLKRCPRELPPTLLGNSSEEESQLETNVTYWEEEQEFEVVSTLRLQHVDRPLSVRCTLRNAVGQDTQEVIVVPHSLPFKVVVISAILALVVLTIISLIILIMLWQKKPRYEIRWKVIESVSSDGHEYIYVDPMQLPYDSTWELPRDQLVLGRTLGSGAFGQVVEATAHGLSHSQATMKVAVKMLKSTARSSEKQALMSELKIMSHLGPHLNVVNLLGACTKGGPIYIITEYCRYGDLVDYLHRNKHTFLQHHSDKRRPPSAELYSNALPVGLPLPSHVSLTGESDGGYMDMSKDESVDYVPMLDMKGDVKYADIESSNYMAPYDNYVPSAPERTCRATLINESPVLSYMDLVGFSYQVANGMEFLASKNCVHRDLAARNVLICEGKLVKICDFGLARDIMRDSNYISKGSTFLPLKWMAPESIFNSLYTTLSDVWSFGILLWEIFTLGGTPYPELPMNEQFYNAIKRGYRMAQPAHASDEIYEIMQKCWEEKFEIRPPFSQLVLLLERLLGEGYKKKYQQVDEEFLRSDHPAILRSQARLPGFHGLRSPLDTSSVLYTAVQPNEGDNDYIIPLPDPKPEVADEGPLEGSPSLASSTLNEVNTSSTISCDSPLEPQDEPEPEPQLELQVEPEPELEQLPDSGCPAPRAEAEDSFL
# Assay text: PDGFRβ LanthaScreen Assay
# Settings: read-out: PDGFR Lantha IC50
Measured endpoint: IC50
Express your answer as a number followed by its unit.

>  <Compound>
Cc1ncc(NC(=O)CN2CCc3cccnc3C2)cc1NC(=O)c1cnn2cc(-c3cnn(C)c3)sc12

>  <Measured endpoint>
IC50

>  <Result>
18.3 nM

$$$$
>  <Compound>
Cc1ncc(C(=O)NCCN2CCCC2(C)C)cc1NC(=O)c1cnn2cc(-c3cncc(S(C)(=O)=O)c3)sc12

>  <Measured endpoint>
IC50

>  <Result>
82.9 nM

$$$$
>  <Compound>
COc1ccncc1-c1cn2ncc(C(=O)Nc3cc(NC(=O)CN4C[C@H](C)O[C@@H](C)C4)cnc3C)c2s1 (relative stereo)

>  <Measured endpoint>
IC50

>  <Result>
4.9 nM

$$$$
>  <Compound>
Cc1ncc(C(=O)NCCN2CC3CC(C3)C2)cc1NC(=O)c1cnn2cc(-c3cnn(C)c3)sc12

>  <Measured endpoint>
IC50

>  <Result>
5.8 nM

$$$$
>  <Compound>
Cc1ncc(NC(=O)[C@@H]2CCCN2C(C)C)cc1NC(=O)c1cnn2cc(-c3cnn4c3OCCC4)sc12

>  <Measured endpoint>
IC50

>  <Result>
6.5 nM

$$$$
>  <Compound>
Cc1ncc(NC(=O)CN2CCCC23CC3)cc1NC(=O)c1cnn2cc(-c3cnn(C)c3)sc12

>  <Measured endpoint>
IC50

>  <Result>
5.1 nM

$$$$

Prompt: Please report the recorded IC50 for Cc1ncc(C(=O)NCCN2CCCC23CCC3)cc1NC(=O)c1cnn2cc(-c3cnn4c3OCCC4)sc12 .
Response: 3 nM
